system: 786-0 renal; assay: NCI-60 one-dose screen, 48 h (100 = growth as untreated, 0 = no growth, -100 = all killed); conditions: 10 µM unless noted
About 83,000 compounds went through this panel and 20% of them were active in at least one assay; those are over-represented in the sample as a whole.

COMPOUND: N#C/C(=C/C=C/c1ccccc1)S(=O)c1ccccc1 (stereo unspecified)
growth [%]: -89.7
--
COMPOUND: O=C1C=CC2(O)OC(c3ccccc3)CC(=O)C2=C1O (stereo unspecified)
growth [%]: 93.6
--
COMPOUND: CCOC(=O)c1cc(C(=O)c2cc(OC)cc(OC)c2)n2ncccc12
growth [%]: 34.2
--
COMPOUND: O=C(Nc1ccccc1C(F)(F)F)C1=NCCCCN1
growth [%]: 98.8
--
COMPOUND: COc1ccc(-c2nc(SCCC(C)C)nc(N/N=C(/C)c3ccc(N)cc3)c2C#N)cc1
growth [%]: 97.9
--
COMPOUND: O=C(Nc1ccc(Oc2cccc(F)c2)c(Cl)c1)c1cnccn1
growth [%]: 46.5
--
COMPOUND: Cc1ccc(-c2nn(CC(=O)N3CCOCC3)c(N)c2C#N)cc1
growth [%]: 100
--
COMPOUND: Cn1ccnc1C(=O)/C=C/c1ccc(CC(=O)Nc2cc(F)c(F)c(F)c2)cc1
growth [%]: 6.02
--
COMPOUND: Cn1cc(-c2csc(-c3cn(CCO)c4ccc(F)cc34)n2)c2cccnc21
growth [%]: 73.3
--
COMPOUND: O=C(/C=C/c1ccco1)Nc1ncc(Cc2ccc(F)cc2)s1
growth [%]: 38.4
--
COMPOUND: COc1cccc(NC(=O)c2sc3nc(C)c(C(=O)c4ccccc4)cc3c2N)c1
growth [%]: 89

* * *

system: MALME-3M melanoma; test: NCI-60 one-dose screen, 48 h; settings: 10 µM unless noted
This is part of a sample that, as a whole, favours compounds with a hit. Of some 83,000 tested, about 20% had one in any assay. Activity calls are given as the source filed them. How the source made its calls: active means growth percent below 10; inactive means the rest.
Labels: active, inactive

COMPOUND: COc1ccc(N2C(=O)/C(=C/C(Cl)=C/c3ccc([N+](=O)[O-])cc3)SC2=S)cc1
LABEL: inactive
--
COMPOUND: C=C(C)[C@@H]1CC[C@]2(COCCCNCCCN)CC[C@]3(C)[C@H](CC[C@@H]4[C@@]5(C)CC[C@H](OCCCN)C(C)(C)[C@@H]5CC[C@]43C)[C@@H]12
LABEL: active
--
COMPOUND: Cc1ccc(-c2nnc(SCc3nc(N)nc(Nc4ccccc4F)n3)n2-c2ccccc2)cc1
LABEL: inactive
--
COMPOUND: CNC1=C(Br)C(=O)c2c(C(=O)OC)c(C)nc(C)c2C1=O
LABEL: active
--
COMPOUND: C=C1C(=O)O[C@H]2[C@H]1CC/C(COC(=O)NCc1ccc(Cn3c(=O)sn(CCCC)c3=O)cc1)=C\CC[C@@]1(C)O[C@@H]21
LABEL: active
--
COMPOUND: O=C(OCC(O)(CO)C(=O)NC12CC3CC(CC(C3)C1)C2)c1ccc(Cl)cc1 (stereo not given)
LABEL: inactive
--
COMPOUND: CNC1=C([N+](=O)[O-])C(c2ccc(OC)cc2)C(C#N)=C(c2ccc[nH]2)O1 (stereo not given)
LABEL: inactive
--
COMPOUND: FC(F)(F)c1cc(N2CCCCC2)nc(NCCCNc2ccnc3cc(Cl)ccc23)n1
LABEL: inactive
--
COMPOUND: N#Cc1nn(-c2ccccn2)c(N)c1C#N
LABEL: inactive
--
COMPOUND: CCN(CC)CCCNc1cc(OC)cc2cccnc12
LABEL: inactive

* * *

tested on: SF-539 CNS; test: NCI-60 one-dose screen, 48 h (100 = growth as untreated, 0 = no growth, -100 = all killed); settings: 10 µM unless noted
The panel holds about 83,000 compounds, 20% with a hit somewhere; the sample as a whole holds those more often.
The label depends only on growth: true if it is at least 90%, false if it is smaller.

COMPOUND: Cn1cc(-c2csc(-c3cn(C)c4ccc(F)cc34)n2)c2cnccc21
LABEL: false
--
COMPOUND: Clc1ccc2c(NCCCn3cnc4c(N5CCCC5)nc(Cl)nc43)ccnc2c1
LABEL: true
--
COMPOUND: COC(=O)c1c(C)nc(C)c2c1C(=O)C(Br)=C(NCCN1CCOCC1)C2=O
LABEL: true
--
COMPOUND: O=C(NCCN1CCOCC1)c1cncnc1Nc1ccc2c(ccn2Cc2ccccn2)c1
LABEL: true
--
COMPOUND: C=C(C)[C@@H]1CC[C@]2(C(=O)NC(C)=O)CC[C@]3(C)[C@H](CC[C@@H]4[C@@]5(C)CCCNC(C)(C)[C@@H]5CC[C@]43C)[C@@H]12
LABEL: false
--
COMPOUND: COc1ccc(/C=C/C(=O)c2ccc(-n3cc(CN4CCN(c5cc6c(cc5F)c(=O)c(C(=O)O)cn6C5CC5)CC4)nn3)cc2)cc1
LABEL: false
--
COMPOUND: O=C(Nc1ncc(Cc2cc(C(F)(F)F)ccc2Cl)s1)C(=S)N1CCOCC1
LABEL: true
--
COMPOUND: C#Cc1ccc(NC(=O)Cc2ccc(/C=C/C(=O)c3nccn3C)cc2)cc1
LABEL: false
--
COMPOUND: CCOC(=O)c1c(C)nc2c(c1N)C(=O)C(=O)N2CCc1ccc(OC)c(OC)c1
LABEL: false
--
COMPOUND: CC/C(=C(/c1ccc(Cl)cc1)c1ccc(OCCN2CCCCCC2)cc1)c1ccccc1
LABEL: false
--
COMPOUND: CN1CC(c2ccccc2)C(C(=O)c2ccc(Br)cc2)C12C(=O)Nc1ccccc12 (configuration not stated)
LABEL: true
--
COMPOUND: COC(CCP(=O)(c1ccccc1)c1ccccc1)(C(=O)c1ccccc1)c1ccccc1 (configuration not stated)
LABEL: false
--
COMPOUND: CC(C)n1cc(C2=C(c3cccc4ccccc34)C(=O)NC2=O)c2cc(Br)ccc21
LABEL: false
--
COMPOUND: COC(=O)c1sc(-c2ccc(C)cc2)cc1O
LABEL: true
--
COMPOUND: Cn1ccnc1C(=O)/C=C/c1ccc(CC(=O)Nc2cc(F)c(F)c(F)c2)cc1
LABEL: false
--
COMPOUND: COc1ccc(/C=N\NC(=O)c2ccc3nc(-c4ccc(Cl)cc4)[nH]c3c2)cc1
LABEL: false
--
COMPOUND: O=C(/C=C/c1ccco1)Nc1ncc(Cc2ccc(F)cc2)s1
LABEL: false
--
COMPOUND: CC(C)(C)n1cc(-c2ccnc(NCCNS(=O)(=O)c3ccc(Br)cc3)c2)c(-c2cccc(O)c2)n1
LABEL: false
--
COMPOUND: Nc1ccc(N)c2c1C(=O)c1cccc([N+](=O)[O-])c1C2=O
LABEL: false
--
COMPOUND: [2H]C([2H])([2H])Oc1ccc(/C=C/C(=O)/C=C(O)/C=C/c2ccc(OC([2H])([2H])[2H])c(OC([2H])([2H])[2H])c2)cc1OC([2H])([2H])[2H]
LABEL: false
--
COMPOUND: COC(=O)[C@@H](Cc1c[nH]c2ccccc12)NC[C@@H](O)CN1C(=O)/C(=C\c2cc(OC)c(OC)c(OC)c2)c2ccccc21
LABEL: true
--
COMPOUND: C#C[C@]1(O)CC[C@H]2[C@@H]3CC=C4c5sc(-c6cccc(C)c6)nc5CC[C@]4(C)[C@H]3CC[C@@]21C
LABEL: false
--
COMPOUND: CCCCCCCC/C=C\CCCCCCCCOc1ccc(CC(=O)NCC[N+]2(C)CCCC2)cc1
LABEL: false
--
COMPOUND: O=C(O)CCCN1C(=O)CSC1=S
LABEL: true
--
COMPOUND: CN(C)CCOc1nc2c3cc([N+](=O)[O-])ccc3nn2c2ccccc12
LABEL: false
--
COMPOUND: CCn1c2ccccc2c2cc(C(O)c3cccc4ncccc34)ccc21 (configuration not stated)
LABEL: false
--
COMPOUND: O=C1N/C(=N/N=C(c2ccccc2)c2ccccc2)S/C1=C\c1ccc(Br)cc1
LABEL: true
--
COMPOUND: COc1ccc(-c2cc(-c3ccc(N(C)C)cc3)nc(NC(=O)c3cccnc3)n2)cc1
LABEL: true
--
COMPOUND: C/C(=C(\c1ccc(OCCCN(C)C)cc1)c1ccc(OC(=O)Cc2ccccc2)cc1)c1ccc(Cl)cc1
LABEL: false
--
COMPOUND: O=C(/C=C/c1cccc([N+](=O)[O-])c1)c1ccc(Nc2nc(Nc3ccc(F)cc3)nc(Nc3ccc(Cl)cc3)n2)cc1
LABEL: true
--
COMPOUND: C#CCOc1cc(/C=N/Nc2nc(-c3ccc(OC)cc3)cs2)ccc1O
LABEL: true
--
COMPOUND: CC1(C)C2=C(C(=O)N1Cc1ccccc1)C(c1ccco1)N(C(=O)C1CCC1)CCN2 (configuration not stated)
LABEL: true
--
COMPOUND: COc1ccc2c(O)cc3c(c2c1)[C@H](CCl)CN3C(=O)c1cc2cc(NC(=O)CCN3CCOCC3)ccc2[se]1
LABEL: false
--
COMPOUND: CC1=C(C(=O)c2ccccc2)C(c2ccc3c(c2)OCO3)NC(=S)N1 (configuration not stated)
LABEL: false
--
COMPOUND: CCN1CCN(c2cc(C(=O)Nc3cccc(Nc4ccc5c(OC)cccc5n4)c3)cc(C(F)(F)F)c2)CC1
LABEL: false
